Would you mind telling me the reported z-score of each entry?
# ASSAY: FRG1 promoter luciferase signal modulators, primary screen, FRG1 inhibition for FSHD, cell-based, C2C12 myotubes, firefly/Renilla luciferase, luminescence (AID 1084)
# TEST PARAMETERS: higher = more signal, called active from +8 up or from −8 down
Please state the value as a number alone, without comment.

Param item = COc1ccc([Si](C)(C)[C@@H]2[C@@H](CC(=O)N3CCC[C@H]3CO)O[C@]3(C(=O)N(Cc4cccc(N5C(=O)c6cccc7cccc5c67)c4)c4ccccc43)[C@H]2C)cc1 ; retrieve measured z-score.
-1.01

Param item = COCCOC(=O)N1C(=O)[C@@]2(c3cc(C#CCC(C(=O)OC)C(=O)OC)ccc31)[C@H](c1ccc(O)cc1)N1[C@H](c3ccccc3)[C@H](c3ccccc3)OC(=O)[C@H]1[C@@H]2C(=O)N1CCc2cc(OC)c(OC)cc2C1 ; retrieve measured z-score.
0.336

Param item = COCCCNC(=O)[C@@]1(c2ccc([N+](=O)[O-])cc2)CC(=O)N(C2CCCCC2)[C@@H]1c1ccc(CO)cc1I ; retrieve measured z-score.
-1.27

Param item = COC(=O)C(CC#Cc1ccc2c(c1)[C@]1(C(=O)N2)[C@H](C(N)=O)[C@H]2C(=O)O[C@H](c3ccccc3)[C@H](c3ccccc3)N2[C@@H]1c1ccccc1OCCO)C(=O)OC ; retrieve measured z-score.
1.69

Param item = COc1ccc([Si](C)(C)[C@H]2[C@H](CC(=O)N3CCC[C@H]3CO)O[C@@]3(C(=O)N(Cc4cccc(N5CCCCC5=O)c4)c4ccccc43)[C@@H]2C)cc1 ; retrieve measured z-score.
-3.74

Param item = COC(=O)C1=CC(c2ccc(CO)cc2)=CC(C2CC2)N(Cc2cc3c(cc2Br)OCO3)C=C1C(=O)OC (configuration not stated) ; retrieve measured z-score.
-2.56

Param item = O=C1O[C@H](c2ccccc2)[C@H](c2ccccc2)N2[C@H]1[C@@H](C(=O)O)[C@]1(C(=O)Nc3ccccc31)[C@H]2c1ccc(OCCO)cc1 ; retrieve measured z-score.
0.248

Param item = CCOC(=O)C1=CCC(c2ccncc2)N(S(=O)(=O)c2ccc(C)cc2)C1 (configuration not stated) ; retrieve measured z-score.
-1.41

Param item = COC(=O)[C@@]1(Cc2ccc(F)cc2)[C@H]2c3cc(C(=O)N(C)C)n(CCF)c3C[C@H]2CN1C(=O)c1ccccc1 ; retrieve measured z-score.
-1.3

Param item = CCOC(=O)C=C1C[C@@H](c2cccc([N+](=O)[O-])c2)O[C@@H](c2cccc([N+](=O)[O-])c2)O1 ; retrieve measured z-score.
-2.17

Param item = COC(=O)[C@@]1(Cc2ccc(F)cc2)[C@H]2c3cc(C(=O)N4CCCC4)n(CCSCCO)c3C[C@H]2CN1C(=O)c1ccccc1 ; retrieve measured z-score.
-0.0476

Param item = O=C1O[C@H](c2ccccc2)[C@H](c2ccccc2)N2[C@H]1[C@@H](C(=O)N1CCCCCCC1)[C@]1(C(=O)Nc3ccc(C#CCCO)cc31)[C@H]2c1ccc(O)cc1 ; retrieve measured z-score.
-1.1

Param item = O=C1c2ccccc2[C@@]2(Cc3ccccc3N(CC(F)(F)F)C2=O)[C@H](c2ccc(CO)cc2)N1Cc1ccccc1 ; retrieve measured z-score.
0.605

Param item = COC(=O)C(CC#Cc1ccc2c(c1)[C@]1(C(=O)N2)[C@H](c2ccc(OCCO)cc2)N2[C@H](c3ccccc3)[C@H](c3ccccc3)OC(=O)[C@H]2[C@@H]1C(N)=O)C(=O)OC ; retrieve measured z-score.
2.1

Param item = C=C[C@@H](CO)NS(=O)(=O)c1ccc(Br)cc1 ; retrieve measured z-score.
-1.84

Param item = CC(CO)N1C(=O)[C@@H]2[C@H]3C(=O)OCC=C[C@H]3OC23C=CCN(c2ccc4ccccc4c2)C(=O)[C@@H]13 (some centres not stated) ; retrieve measured z-score.
0.621

Param item = C=CCNC(=O)[C@@H]1[C@H]2C(=O)O[C@H](c3ccccc3)[C@H](c3ccccc3)N2[C@H](c2ccc(OCCO)cc2)[C@@]12C(=O)N(C(=O)OCCOC)c1ccccc12 ; retrieve measured z-score.
0.0023
